Test system: Vero
Protocol Text: Cytotoxicity against African green monkey Vero cells
Format: cell-based
Protocol Conditions: chlorocebus sabaeus
Reported Property: CC50 (µM)
The response must be a number in µM with no trailing unit.

Task item: Name the recorded CC50 for O=C(O)[C@H]1C2C=CC(CC2)[C@@H]1Nc1nc2cnc(-c3c[nH]c4ncc(F)cc34)nc2s1 (stereo not given in full) .
Reply: 86.1

Task item: Now consider `O=C(O)C12CC3CC(CC(Nc4nc(-c5c[nH]c6ncc(F)cc56)ncc4F)(C3)C1)C2` .
Reply: 30.3

---

Tested on: PBMC
Protocol Text: Cytotoxicity against human PBMC cells
Assay type: cell-based
Protocol Conditions: pbmc
Provide the recorded CC50 for the entries that follow.

Task item: Item under review: O=C(O)[C@H]1C2CCC(C3CC32)[C@@H]1Nc1nc(-c2c[nH]c3ncc(F)cc23)ncc1F (stereo partly drawn) . Reported CC50?
Reply: > 100 µM

Task item: Likewise for O=C(O)[C@H]1C2C=CC(CC2)[C@@H]1Nc1nc(-c2c[nH]c3ncc(F)cc23)nc2ccsc12 (stereo partly drawn) ?
Reply: 64.6 µM

Task item: Then Cn1cnc2c(N[C@H]3C4C=CC(CC4)[C@@H]3C(=O)O)nc(-c3c[nH]c4ncc(F)cc34)nc21 (stereo partly drawn) ?
Reply: > 100 µM

Task item: How about this compound: O=C(O)[C@H]1C2C=CC(CC2)[C@@H]1Nc1nc2cnc(-c3c[nH]c4ncc(F)cc34)nc2s1 (stereo partly drawn)
Reply: 84.8 µM

Task item: Check `O=C(O)C12CC3CC(CC(Nc4nc(-c5c[nH]c6ncc(F)cc56)ncc4F)(C3)C1)C2` too.
Reply: 23.1 µM

Task item: Do the same for O=C(O)[C@H]1C2C=CC(CC2)[C@@H]1Nc1cc2nncn2c(-c2c[nH]c3ncc(F)cc23)n1 (stereo partly drawn) please
Reply: > 100 µM

Task item: Again, but for O=C(O)[C@H]1C2C=CC(CC2)[C@@H]1Nc1nc(-c2n[nH]c3ncc(F)cc23)nc2ccsc12 (stereo partly drawn)
Reply: > 100 µM

Task item: How about this compound: O=C(O)[C@H]1C2C=CC(CC2)[C@@H]1c1nnc2c(F)cnc(-c3c[nH]c4ncc(F)cc34)n12 (stereo partly drawn)
Reply: ≥ 100 µM

---

Would you kindly list CC50 for each of these compounds?
Test system: Vero
Protocol Text: Cytotoxicity against African green monkey Vero cells
Assay type: cell-based
Protocol Conditions: chlorocebus sabaeus

Task item: Return reported CC50; argument: O=C(O)[C@H]1C2C=CC(CC2)[C@@H]1Nc1nc(-c2c[nH]c3ncc(F)cc23)nc2ccsc12 (stereo partly drawn)
Reply: 74.9 µM

Task item: Now try O=C(O)[C@H]1C2C=CC(CC2)[C@@H]1Nc1nc(-c2n[nH]c3ncc(F)cc23)ncc1F (stereo partly drawn) .
Reply: > 100 µM

Task item: Moving on to Cn1cnc2c(N[C@H]3C4C=CC(CC4)[C@@H]3C(=O)O)nc(-c3c[nH]c4ncc(F)cc34)nc21 (stereo partly drawn)
Reply: > 100 µM

Task item: And what about the compound O=C(O)[C@H]1C2CCC(CC2)[C@@H]1Nc1nc(-c2c[nH]c3ncc(F)cc23)ncc1F [PIMODIVIR] ?
Reply: > 100 µM

Task item: O=C(O)[C@H]1C2C=CC(CC2)[C@@H]1Nc1nc(-c2n[nH]c3ncc(F)cc23)nc2sccc12 (stereo partly drawn) ?
Reply: > 100 µM

Task item: Entry O=C(O)[C@H]1C2C=CC(CC2)[C@@H]1Nc1nc(-c2n[nH]c3ncc(F)cc23)nc2ccsc12 (stereo partly drawn) please
Reply: 52.5 µM

Task item: One more compound: O=C(O)[C@H]1C2C=CC(CC2)[C@@H]1Nc1cc2nncn2c(-c2c[nH]c3ncc(F)cc23)n1 (stereo partly drawn)
Reply: > 100 µM

Task item: Cc1cc2nc(-c3c[nH]c4ncc(F)cc34)nc(N[C@H]3C4C=CC(CC4)[C@@H]3C(=O)O)c2s1 (stereo partly drawn) , same question.
Reply: 90.3 µM
